Reported growth values follow for various molecules
- Test system: HS 578T breast
- test.name: NCI-60 one-dose screen, 48 h (100 = growth as untreated, 0 = no growth, -100 = all killed)
- cond: 10 µM unless noted
About 83,000 compounds went through this panel and 20% of them were active in at least one assay; those are over-represented in the sample as a whole. Calls of active or inactive are those of the source. The calls were made as follows: active = growth percent below 10; inactive = the rest.
observable: growth

- molecule: "COc1ccc(/C=C/C(=O)Nc2cc(/C=C\\c3cc(OC)c(OC)c(OC)c3)cc(OC)c2OC)cc1OC"
  observable: "growth"
  readout.value: "29% (inactive)"
- molecule: "O=C(/C(=C\\c1ccc([N+](=O)[O-])cc1)S(=O)Cc1ccc(Cl)cc1)c1ccc(Cl)cc1 (configuration not stated)"
  observable: "growth"
  readout.value: "85.1% (inactive)"
- molecule: "Cc1cc2nc3c4cc(C=O)ccc4n(CCN(C)C)c3nc2cc1C"
  observable: "growth"
  readout.value: "51.6% (inactive)"
- molecule: "CCCCCN1C=C/C(=C\\C(=O)N(C)c2ccccc2Br)c2ccccc21"
  observable: "growth"
  readout.value: "96.8% (inactive)"
- molecule: "CC1=C(C(=O)/C=C/c2c[nH]c3ccccc23)C(c2ccccc2)NC(=S)N1 (configuration not stated)"
  observable: "growth"
  readout.value: "95.9% (inactive)"
- molecule: "N#C/C(=C\\c1ccc([N+](=O)[O-])s1)c1nc2cc(Cl)ccc2s1"
  observable: "growth"
  readout.value: "77.6% (inactive)"
- molecule: "Fc1ccc(-c2cn3c(nc4ccccc43)c(-c3ccccc3)n2)cc1"
  observable: "growth"
  readout.value: "76.7% (inactive)"
- molecule: "O=C(NCCNc1nccc(-c2c(-c3cccc(F)c3)nc3sccn23)n1)c1ccc(Cl)cc1"
  observable: "growth"
  readout.value: "74.8% (inactive)"
- molecule: "O=C1c2cccc3c(-c4ccc5c(c4)ncn5C4CCCCC4)ccc(c23)C(=O)N1CCO"
  observable: "growth"
  readout.value: "94.7% (inactive)"
- molecule: "C=C(C)[C@@H]1CC[C@]2(C(=O)N3CCN(C)CC3)CC[C@]3(C)[C@H](CC[C@@H]4[C@@]5(C)C/C(=C/c6cccnc6)C(=O)C(C)(C)[C@@H]5CC[C@]43C)[C@@H]12"
  observable: "growth"
  readout.value: "76.4% (inactive)"
- molecule: "CCOC(=O)C1=C(CCl)NC(=O)NC1c1ccc2c(c1)OCO2 (configuration not stated)"
  observable: "growth"
  readout.value: "71.9% (inactive)"
- molecule: "CCOC(=O)[C@@H]1CCCN(S(=O)(=O)c2ccc(S(=O)(=O)N(CC)CC)c(F)c2)C1"
  observable: "growth"
  readout.value: "93.5% (inactive)"
- molecule: "COc1ccc(/C=C/c2nc(Nc3ccc(S(=O)(=O)NC(C)=O)cc3)c3ccccc3n2)cc1"
  observable: "growth"
  readout.value: "82.8% (inactive)"
- molecule: "CN(C)CCC(=O)c1ccc([N+](=O)[O-])cc1"
  observable: "growth"
  readout.value: "107% (inactive)"
- molecule: "O=C1c2ccc3c4c(ccc(c24)C(=O)N1CCCNCc1ccccc1F)C(=O)N(CCCNCc1ccccc1F)C3=O"
  observable: "growth"
  readout.value: "-23.7% (active)"
- molecule: "O=C(CCN1CCCC1)Nc1ccc2c(NCCc3ccccc3)c3ccccc3nc2c1"
  observable: "growth"
  readout.value: "-25.1% (active)"
- molecule: "COc1cc2cc(Oc3cccc(NC(=O)Nc4cc(C(F)(F)F)cc(C(F)(F)F)c4)c3)c(C)nc2cc1OC"
  observable: "growth"
  readout.value: "-10.7% (active)"
- molecule: "COc1cc2c3c(c4c5ccccc5[nH]c4c2c(OC)c1OC)C(=O)N(CCN1CCOCC1)C3=O"
  observable: "growth"
  readout.value: "66.6% (inactive)"
- molecule: "CCOC(=O)c1cc(C(=O)c2ccc(Br)cc2)n2ccc(/C=C/c3cc[n+](CC(=O)c4ccc(OC)cc4)cc3)cc12"
  observable: "growth"
  readout.value: "129% (inactive)"
- molecule: "COc1cc2c(cc1OC)C(=O)/C(=C/c1cc(C)c(O)c(C)c1)S2"
  observable: "growth"
  readout.value: "36.8% (inactive)"
- molecule: "COc1ccccc1/C(C)=N/NC(=O)CSc1nc2ccccc2c(=O)n1Cc1ccc(S(N)(=O)=O)cc1"
  observable: "growth"
  readout.value: "85.4% (inactive)"
- molecule: "COc1ccc(NC(N)=NCCCOc2ccc(F)cc2)cc1"
  observable: "growth"
  readout.value: "113% (inactive)"
- molecule: "O=C1Nc2cc(-c3ccc(NS(=O)(=O)c4ccccc4)cc3)ccc2/C1=C/c1ccc[nH]1"
  observable: "growth"
  readout.value: "97.7% (inactive)"
- molecule: "COc1ccc(C/C(C)=C(/c2ccc(OCCCN(C)C)cc2)c2ccc(OC(C)=O)cc2)cc1"
  observable: "growth"
  readout.value: "64.1% (inactive)"
- molecule: "CC1=CCC(OC(=O)C(C)(O)CCC(O)(C(=O)OC2(C)C=CC(O)(C(C)C)CC2)C(C)C)(C(C)C)CC1 (configuration not stated)"
  observable: "growth"
  readout.value: "105% (inactive)"
- molecule: "CCOC(=O)[C@@H](C)C[C@H](Cc1ccccc1)NC(=O)c1csc([C@@H](C[C@H](C(C)C)N(C)C(=O)[C@@H](NC(=O)[C@H]2C[C@H](O[Si](C)(C)C(C)(C)C)CCN2C)C(C)C)OC(C)=O)n1"
  observable: "growth"
  readout.value: "-17.7% [9.25 µM] (active)"
- molecule: "CCNC(=O)Oc1ccc(/C(=C(\\C)c2ccccc2)c2ccc(OCCCN(C)C)cc2)cc1"
  observable: "growth"
  readout.value: "57% (inactive)"
- molecule: "O=C(CCN1CCCC1)Nc1ccc2c(NCc3ccccc3)c3ccccc3nc2c1"
  observable: "growth"
  readout.value: "-10.7% (active)"
- molecule: "COc1ccccc1/C=C1\\Oc2cc(OCCN3CCCC3)ccc2C1=O"
  observable: "growth"
  readout.value: "80.6% (inactive)"
- molecule: "COC1=CC(=O)c2ccccc2C1=O"
  observable: "growth"
  readout.value: "100% (inactive)"
- molecule: "COc1ccc(-c2nc([C@@H](C)Sc3nc(N)cc(N)n3)c(C)s2)cc1OCCN1CCOCC1"
  observable: "growth"
  readout.value: "94.2% (inactive)"
- molecule: "Cc1cc2nc3c4ccc(Br)cc4n(CCN(C)C)c3nc2cc1C"
  observable: "growth"
  readout.value: "53.9% (inactive)"
- molecule: "COC(=O)/C=C1\\S/C(=N\\NC(=O)c2cc3ccc2/C=C\\c2ccc(cc2)/C=C\\3)N(c2ccccc2)C1=O"
  observable: "growth"
  readout.value: "77.9% (inactive)"
- molecule: "COc1ccc(/C=C/c2nc(Nc3ccc(S(=O)(=O)Nc4nc(C)cc(C)n4)cc3)c3ccccc3n2)cc1"
  observable: "growth"
  readout.value: "83.1% (inactive)"
- molecule: "COc1ccc(C(=O)CC#N)cc1"
  observable: "growth"
  readout.value: "110% (inactive)"
- molecule: "COc1cccc2c1c1nc3cc(C)c(C)cc3nc1n2CCN(C)C"
  observable: "growth"
  readout.value: "54.4% (inactive)"
- molecule: "O=S(=O)(NCCNc1nccc(-c2c(-c3cccc(O)c3)nc3occn23)n1)c1ccc(C(F)(F)F)cc1"
  observable: "growth"
  readout.value: "100% (inactive)"
